What follows is a record of GI50 for A431 cells.

Exam item: Please report the recorded GI50 for C=CC(=O)N1CCC(Nc2cc3c(Nc4ccc(Oc5cc(-c6nc(C)no6)ccn5)cc4F)ncnc3cc2OC)CC1 .
Marked response: 100 to 300 nM

Exam item: Request: C=CC(=O)N1CCC(Nc2cc3c(Nc4ccc(Oc5ccn(-c6cccc(OC)n6)n5)cc4F)ncnc3cc2OC)CC1
Marked response: 300 to 600 nM

Exam item: Request: C=CC(=O)N1CCC(Nc2cc3c(Nc4ccc(Oc5ccnc(N6CCN(C)CC6)c5)cc4F)ncnc3cc2OC)CC1
Marked response: 600 to 1000 nM

Exam item: Request: C=CC(=O)N1CCC(Nc2cc3c(Nc4ccc(Oc5ccnc(N6CCCC(F)(F)C6)c5)cc4F)ncnc3cc2OC)CC1
Marked response: 300 to 600 nM

Exam item: Request: C=CC(=O)N1CCC(Nc2cc3c(Nc4ccc(Oc5ccnc(CN6CCCC6)c5)cc4F)ncnc3cc2OC)CC1
Marked response: 600 to 1000 nM

Exam item: Request: C=CC(=O)N1CCC(Oc2cc3c(Nc4ccc(Oc5ccnc(N6CC7C(C6)C7(F)F)c5)cc4F)ncnc3cc2OC)CC1 (stereo not shown)
Marked response: 100 to 300 nM

Exam item: Request: C=CC(=O)N1CCC(Nc2cc3c(Nc4ccc(Oc5ccnc(-c6ccc(C)cc6)c5)cc4F)ncnc3cc2OC)CC1
Marked response: 600 to 1000 nM

Provenance of the data: patent US20240398805A1
